system: HepG2; test: Antiproliferative activity against human HepG2 cells assessed as reduction in cell growth; format: functional, cell-based
Response field label takes 1 (yes) when IC50 is strictly below 40 µM and 0 (no) in all other cases.

smiles-code	tested-system	assigned-class
COc1ccc(C(=O)CSC(=S)N/N=C(\C)c2cc3ccccc3o2)cc1	HepG2	1 (yes)
C/C(=N\Nc1nc(-c2ccc(Cl)cc2)cs1)c1cc2ccccc2o1	HepG2	1 (yes)
Cc1ccc(/N=N/C(C=O)=C(/O)c2cc3ccccc3o2)cc1	HepG2	0 (no)
O=CC(/N=N/c1ccc([N+](=O)[O-])cc1)=C(\O)c1cc2ccccc2o1	HepG2	1 (yes)
O=CC(/N=N/c1ccc(Cl)cc1)=C(\O)c1cc2ccccc2o1	HepG2	1 (yes)
C/C(=N\Nc1nc(-c2ccccc2)cs1)c1cc2ccccc2o1	HepG2	1 (yes)

* * *

Here the recorded MIC is given for each entry.
tested on: Candida albicans; experiment: Antifungal activity against Candida albicans CS35 assessed as reduction in fungal growth incubated for 18 hrs by two-fold serial dilution method; assay type: functional

smiles-code	unit-annotation	MIC
O=CC(/N=N/c1ccc([N+](=O)[O-])cc1)=C(\O)c1cc2ccccc2o1	µg/mL	256
OC(Cn1cncn1)(Cn1cncn1)c1ccc(F)cc1F	µg/mL	256
COc1ccc(C(=O)CSC(=S)N/N=C(\C)c2cc3ccccc3o2)cc1	µg/mL	256
C/C(=N\Nc1nc(C)cs1)c1cc2ccccc2o1	µg/mL	128
CN(C)/C=C/C(=O)c1cc2ccccc2o1	µg/mL	256

* * *

experiment: Safety index, ratio of IC50 for cytotoxicity against human WI-38 cells to IC50 for antiproliferative activity against human PC-3 cells; format: toxicity, cell-based; conditions: WI-38 cells versus PC-3 cells

smiles-code	selectivity ratio
C/C(=N\Nc1nc(-c2ccccc2)cs1)c1cc2ccccc2o1	2.49
C/C(=N\Nc1nc(C)cs1)c1cc2ccccc2o1	4.93
CCOC(=O)Cc1csc(N/N=C(\C)c2cc3ccccc3o2)n1	2.8

* * *

tested on: MCF7; experiment: Antiproliferative activity against human MCF7 cells assessed as reduction in cell growth; format: functional, cell-based
Here the recorded log10 of IC50 is given for each entry.
property-measured: log10 of IC50 (log10 of the value in µM)

smiles-code	log10 of IC50
C/C(=N\Nc1nc(C)cs1)c1cc2ccccc2o1	0.69
C/C(=N\Nc1nc(-c2ccc(Cl)cc2)cs1)c1cc2ccccc2o1	1.48
CN1CCN(C(=S)Cc2cc3ccccc3o2)CC1	1.87
COc1ccc(C(=O)CSC(=S)N/N=C(\C)c2cc3ccccc3o2)cc1	1.58
C/C(=N\Nc1nc(-c2ccccc2)cs1)c1cc2ccccc2o1	0.93
C/C(=N\Nc1nc(-c2ccc(Br)cc2)cs1)c1cc2ccccc2o1	1.52
C/C(=N\Nc1nc(-c2ccc(C)cc2)cs1)c1cc2ccccc2o1	1.05
O=CC(/N=N/c1ccc([N+](=O)[O-])cc1)=C(\O)c1cc2ccccc2o1	1.64
CCOC(=O)Cc1csc(N/N=C(\C)c2cc3ccccc3o2)n1	0.82
Cc1ccc(/N=N/C(C=O)=C(/O)c2cc3ccccc3o2)cc1	1.77
C/C(=N\Nc1nc(-c2cc3ccccc3o2)cs1)c1cc2ccccc2o1	1.41
COc1ccc(-c2csc(N/N=C(\C)c3cc4ccccc4o3)n2)cc1	1.28

Origin of values: ChEMBL document CHEMBL4680335
